Molecular target: OsSMF1 (Oryza sativa, UniProt Q6ZLB0 1-436)
Sequence: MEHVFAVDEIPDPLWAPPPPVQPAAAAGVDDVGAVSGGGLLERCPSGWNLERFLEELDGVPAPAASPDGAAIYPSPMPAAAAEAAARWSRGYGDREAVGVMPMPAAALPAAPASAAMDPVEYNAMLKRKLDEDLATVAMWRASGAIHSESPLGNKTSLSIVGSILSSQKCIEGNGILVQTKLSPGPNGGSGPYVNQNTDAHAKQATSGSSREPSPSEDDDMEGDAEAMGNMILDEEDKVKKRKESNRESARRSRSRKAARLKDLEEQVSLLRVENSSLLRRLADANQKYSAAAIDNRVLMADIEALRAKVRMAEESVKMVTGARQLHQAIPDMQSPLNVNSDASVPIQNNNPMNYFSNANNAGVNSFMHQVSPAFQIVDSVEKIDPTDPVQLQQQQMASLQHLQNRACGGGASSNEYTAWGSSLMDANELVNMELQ
Experiment: protein-binding microarray (RPBM); PBS, 2% BSA, 51.3 ng/ul salmon testes DNA, 50 uM zinc acetate, 200 nM TF, 25 C, 1 h; high values mean tight binding
Settings: protein: recombinant; tags: N-terminal polyhistidine and DsRed monomer fusion (pET32a); chain copies: 2; label: CyDye5-dUTP incorporated in the synthesized complementary strand; 3' TTTTT single-stranded linker to array surface; dsDNA, one strand shown
In all, about 39,000 sequences were measured (“fluorescence intensity (a.u.)”: median about 4,300, highest 2% from about 39,000 on). Many of the other results were omitted from the sample, so the highest values are more common in it than they were.
MEASURED_PARAMETER: binding signal

RECORD_SEQUENCE	TGT	EXPERIMENTAL_VALUE
CGTGCATCCGCTTGTGCTGCCACTTCGACAGCCCGCCCGGCGGAGTCACCTAGTGCAG	OsSMF1 (Oryza sativa, UniProt Q6ZLB0 1-436)	3570 fluorescence intensity (a.u.)

Given the sequence AGTAATTAAAATTTAAGAGGCAAAATTACGTGTGAATTTGCGGAGTCACCTAGTGCAG , write its reported binding signal.
4130 fluorescence intensity (a.u.)

Please indicate binding signal recorded for CCCTACGTGCACACATCCAGCTCCATTATATAGCCATTTTCGGAGTCACCTAGTGCAG
54800 fluorescence intensity (a.u.)

Give the measured binding signal for TACGCCGTTACGTGGTATGGTGTTGTGCCATTTCAGTCGGCGGAGTCACCTAGTGCAG
3500 fluorescence intensity (a.u.)

Tell me measured binding signal for ATACGGCACCATTTACGTGTATATGTGTCGTACATGCATACGGAGTCACCTAGTGCAG please.
3470 fluorescence intensity (a.u.)

Give a short answer stating reported binding signal for CGATATACGTACACATGTGACATGACGTAATTTTACATCCCGGAGTCACCTAGTGCAG .
4320 fluorescence intensity (a.u.)

Could you please provide reported binding signal for CTGACAGCTTTTAGTTCACAAATATCAGTAAGATTTCCCTCGGAGTCACCTAGTGCAG ? Thanks!
43200 fluorescence intensity (a.u.)

Recall and state the measured binding signal for TTATATACTCCCTCTTTCCACGTAAGTTACATTTATTACTCGGAGTCACCTAGTGCAG .
7340 fluorescence intensity (a.u.)

Could you please provide reported binding signal for TCTGACGGGCGATGACGACGACGACGGTGCAAAAGCCTGACGGAGTCACCTAGTGCAG ? Thanks!
3310 fluorescence intensity (a.u.)

Quick one: give measured binding signal for AGTTGGCGTGGATGGCCACGATTCTGGACCCGGGGTTGCCCGGAGTCACCTAGTGCAG
3600 fluorescence intensity (a.u.)
